Entry source: the supplement of paper PMC12855868

B1: library; numbered along this chain (parent)
chain: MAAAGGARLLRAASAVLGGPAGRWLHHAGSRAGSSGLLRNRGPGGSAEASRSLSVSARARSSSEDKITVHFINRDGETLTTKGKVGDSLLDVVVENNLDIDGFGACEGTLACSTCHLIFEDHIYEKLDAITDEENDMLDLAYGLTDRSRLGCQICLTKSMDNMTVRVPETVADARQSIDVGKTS

Variants of: B1
Assay: scaled log2 fold change in cell abundance, elesclomol vs control (0 = silent mean, 1 = nonsense mean) (scaled log2 ratio); higher = higher viability under elesclomol (loss of FDX1 cuproptosis function);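 note: variant abundance is its share of total variant reads in each endpoint sample, from next-generation sequencing of the integrated ORF PCR-amplified out of genomic DNA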
Conditions: with HEK293T FDX1 KO; elesclomol 40 nM; glucose 10 mM; 11 days
measurement-name: scaled log2 fold change

In [3]: df
Out[3]:
      mut  data_value
 0   E64C       0.793
 1  A141D      -0.445
 2   A12C         0.2
 3  N162W       0.831
 4  T131R       0.487
 5  S177H      -0.562
 6  A172D        1.11
 7  L144R       0.505
 8  E133P       0.243
 9  I130T     -0.0285
10   A57H      -0.799
11  T114D       0.798
12   L90R      -0.461
13  C112D        2.02
14  M137D       0.152
15    A2E       0.752
16   A49P       0.203
17   K82Y      -0.154
18   L38K       0.601
19   L89T      -0.104
20    R8H      -0.336
21  R147W      -0.126
